Test system: DU-145 prostate
testDescription: NCI tumour cell line growth inhibition, 48 h
Where a SMILES comes first, the peptide text is derived from it. [ ]: non-standard residue; d: D form. The star is where a group is joined. X28 = COC1=CC(=O)N(C(=O)[C@@H](O*)C(C)C)[C@H]1Cc1ccccc1; Bn2Val = CC(C)[C@@H](C(=O)*)N(Cc1ccccc1)Cc1ccccc1; NMeV = CN[C@H](C(=O)O)C(C)C; dNMeA = CN[C@H](C)C(=O)O
# TGI listing for each entry below
measuredEndpoint: TGI

compound	result
N#C/C=c1/c2ccccc2n2nc3ccccc3c12	> 100 µM
Fc1ccc2[nH]cc(-c3nc(-c4c[nH]c5ccncc45)cs3)c2c1	3.1 µM
COc1cc2c3c(n(CCCCNC(=O)OC(C)(C)C)c(=O)c2cc1OC)-c1cc2c(cc1C3=O)OCO2	> 100 µM
COC1=CC(=O)N(C(=O)[C@@H](OC(=O)[C@@H](C)N(C)C(=O)[C@@H]2CCCN2C(=O)[C@H](C(C)C)N(C)C(=O)[C@@H](NC(=O)[C@H](C(C)C)N(Cc2ccccc2)Cc2ccccc2)C(C)C)C(C)C)[C@H]1Cc1ccccc1 (Bn2Val-V[NMeV]P[dNMeA]-X28)	> 100 µM

---

Tested on: SF-539 CNS
testDescription: NCI tumour cell line growth inhibition, 48 h
measuredEndpoint: TGI

compound	system	result
CC(C)(C)c1cc(C(=O)C2Cc3ccccc3C(=O)O2)cc(C(C)(C)C)c1O (centres undefined)	SF-539 CNS	31.7 µM
O=C(CNc1nccs1)Nn1cnc2ccc(S(=O)(=O)Nc3nccs3)cc2c1=O	SF-539 CNS	> 100 µM
Cc1cc2c(c3nocc13)C(=O)c1ccccc1C2=O	SF-539 CNS	> 100 µM
CC(=O)NNC(=S)/N=C\c1c(O)c2ccccc2oc1=O	SF-539 CNS	> 100 µM
CNC(=O)c1cc2nc3ccccc3c(=O)n2c2ccccc12	SF-539 CNS	> 10 µM
CCN(CC)CCC(=O)OC1C(C)=CC(C)C(=O)CC(C(C)CC2CCC(O)C(OC)C2)OC(=O)C2CCCCN2C(=O)C(=O)[C@@]2(O)OC(CCC2C)CC(OC)\C(C)=C/C=C/C=C/C(C)CC(C)C(=O)C1OC (some centres undefined)	SF-539 CNS	15.2 µM
c1ccc2[nH]c3c(N=NC4=NCCN4)c4ccccc4c-3nc2c1	SF-539 CNS	20.2 µM
COC1=CC(=O)c2c(cc(COP(N)(=O)N(CCCl)CCCl)n2C)C1=O (centres undefined)	SF-539 CNS	2.19 µM
CCn1c(-c2ccc(OC)cc2)nc2c1C(=O)c1ccccc1C2=O	SF-539 CNS	> 100 µM

---

Tested on: SW-620 colon
testDescription: NCI tumour cell line growth inhibition, 48 h
measuredEndpoint: TGI

In [3]: df
Out[3]:
                                    compound        system  measuredendpoint    result
 0  O=c1cc(-c2ccccc2)oc2ccc(OC/C(=N/O)c3ccc(F)cc3)cc12  SW-620 colon               TGI   32.8 µM
 1            COc1ccc2c3c(c(C(=O)O)oc13)CCC2  SW-620 colon               TGI  > 100 µM
 2               COC(=O)c1ccccc1NC(=S)NN(C)C  SW-620 colon               TGI  > 100 µM
 3  O=S(c1ccccc1)C1CC2CC3(CCC21O)OCCO3 (stereo unspecified)  SW-620 colon               TGI  > 100 µM
 4  Nc1nc(Nc2ccc(Cl)cc2)sc1C(=O)c1c[nH]c2ccccc12  SW-620 colon               TGI  > 100 µM
 5       C=CCNc1nc(O)c(/C=C2\C=Nc3ncccc32)s1  SW-620 colon               TGI   9.25 µM
 6       O=C(/C=C/c1ccc2c(c1)OCO2)NCCc1ccco1  SW-620 colon               TGI  > 100 µM
 7  CC(=O)NNc1nc(C)c(C(/C=C/c2ccc([N+](=O)[O-])cc2)=N/NC(N)=O)s1  SW-620 colon               TGI  > 100 µM
 8  CCn1c(-c2ccc(OC)cc2)nc2c1C(=O)c1ccccc1C2=O  SW-620 colon               TGI  > 100 µM
 9  O=C(OCC1CCCN2CCCCC12)c1cccnc1 (stereo unspecified)  SW-620 colon               TGI  > 100 µM
10  Clc1ccccc1[C@@H]1C[C@@H]2Cc3cc(Br)c4ccccc4c3N1O2  SW-620 colon               TGI  > 100 µM

---

# TGI per record follows
Tested on: UACC-257 melanoma
testDescription: NCI tumour cell line growth inhibition, 48 h
measuredEndpoint: TGI

molecule	measuredEndpoint	result
O=C1NCN(c2ccccc2)C12CCN(CCCC(c1ccc(F)cc1)c1ccc(F)cc1)CC2	TGI	3.15 µM
CCCCC[C@H]1CC=C2C(=O)C=C[C@@H]2CC=CCCCC(=O)O[C@@H](CCCCC)CC=C2C(=O)C=C[C@@H]2CC=CCCCC(=O)O[C@@H](CCCCC)CC=C2C(=O)C=C[C@@H]2CC=CCCCC(=O)O1	TGI	2.2 µM
CSc1c2c(C)n[nH]c2nn1-c1ccccc1	TGI	> 100 µM
c1ccc(C(c2cccc3c2ccc2ccccc23)C(c2ccccc2)c2cccc3c2ccc2ccccc23)cc1 (configuration not stated)	TGI	> 100 µM
CC(C)=O.O=C([O-])C(F)(F)F.O=C([O-])C(F)(F)F.O=C([O-])C(F)(F)F.O=C([O-])C(F)(F)F.[Rh+2].[Rh+2]	TGI	> 100 µM
COC(=O)[C@H]1[C@@H](O)[C@@]2(O)c3c(OC)cc(OC)cc3O[C@@]2(c2ccc3c(c2)OCO3)[C@@H]1c1ccccc1	TGI	> 50 µM
CN(C)C[C@H]1CCn2c(c(C3=C(c4cn(C)c5ccccc45)C(=O)NC3=O)c3ccccc32)C1	TGI	8.45 µM

---

Below, each entry is listed alongside its reported GI50.
Test system: ACHN renal
testDescription: NCI tumour cell line growth inhibition, 48 h
measuredEndpoint: GI50

>>> df
                                   molecule      system  measuredendpoint      result
0  Nc1ncnc2c1c(-c1ccc(Oc3ccccc3)cc1)nn2C[C@H]1SSC[C@@H]1O  ACHN renal              GI50      482 nM
1  COc1cc(OC)c(/C=C/C(=O)c2ccc(Nc3ncnc4ccccc34)cc2)c(OC)c1  ACHN renal              GI50     1830 nM
2  Cc1cc(C(=O)Nc2cc(Oc3ccc4nc(NC(=O)C5CC5)cn4n3)ccc2C)n(C)n1  ACHN renal              GI50  > 10000 nM
3      CCCCCCCN(CCCCCCC)C(=N)c1ccnc2ccccc12  ACHN renal              GI50     1620 nM

---

System: SF-268 CNS
testDescription: NCI tumour cell line growth inhibition, 48 h
Recorded TGI by entry

molecule	TGI
C=CC(C)(C)C1(CC(OC)OC)C(=O)N(C)c2ccccc21 (centres undefined)	> 25 µM
S=c1nc(C(c2ccccc2)c2ccccc2)[nH][nH]1	> 100 µM
O=C(NNS(=O)(=O)c1ccc(Br)cc1)c1ccc(Cl)cc1NC(=O)C12CC3CC(CC(C3)C1)C2	24.9 µM
CCN(CC)CCC(=O)OC1C(C)=CC(C)C(=O)CC(C(C)CC2CCC(O)C(OC)C2)OC(=O)C2CCCCN2C(=O)C(=O)[C@@]2(O)OC(CCC2C)CC(OC)\C(C)=C/C=C/C=C/C(C)CC(C)C(=O)C1OC (some centres undefined)	20.5 µM

---

Test system: SK-MEL-5 melanoma
testDescription: NCI tumour cell line growth inhibition, 48 h
Where a SMILES comes first, the peptide text is derived from it. [ ]: non-standard residue; d: D form. The star is where a group is joined. X28 = COC1=CC(=O)N(C(=O)[C@@H](O*)C(C)C)[C@H]1Cc1ccccc1; Bn2Val = CC(C)[C@@H](C(=O)*)N(Cc1ccccc1)Cc1ccccc1; NMeV = CN[C@H](C(=O)O)C(C)C; dNMeA = CN[C@H](C)C(=O)O
TGI for assorted compounds

compound	TGI
N/C(=N\S(=O)(=O)c1ccc(-c2ccccn2)s1)Nc1ccc(Cl)cc1	30.6 µM
O=C(O)C1CCN(Cc2oc(CO)cc(=O)c2O)C1 (stereo not drawn)	> 100 µM
O=C(NNS(=O)(=O)c1ccc(Br)cc1)c1ccc(Cl)cc1NC(=O)C12CC3CC(CC(C3)C1)C2	23.2 µM
COc1cc2c(c(O)c1C)C(=O)CC(c1ccccc1)O2 (stereo not drawn)	37.2 µM
CCCc1n[nH]c(=O)n1N1C(=O)C=CC1=O	> 100 µM
O=c1c(Nc2ccccc2)cn(CCOc2ccc(Cl)cc2)c(=O)n1CCOc1ccc(Cl)cc1	> 100 µM
N#CNC(=NCc1ccccc1)NCCc1c[nH]c2ccccc12	83.3 µM
CC(=O)Oc1c2c(c(OC(C)=O)c3c1n(C(C)=O)c1ccccc1n3C(C)=O)n(C(C)=O)c1ccccc1n2C(C)=O	39 µM
C/C(=N/NC(=S)N(C)C)c1ccccc1O	> 49.8 µM
Cc1cc2c(c3nocc13)C(=O)c1ccccc1C2=O	> 100 µM
O=C1NC(=O)[C@@]2(CC[C@@H](O)C2)c2ccncc21	> 100 µM
C=CCOC(=O)c1c(C)n([O-])c2cc(Cl)c(Cl)cc2[n+]1=O	36.8 µM
Nc1ncnc2c1c(-c1ccc(Oc3ccccc3)cc1)nn2C[C@H]1SSC[C@@H]1O	1.79 µM
Cc1ccc2n(c1)cc(-c1ccc(/C=N/NC(=N)N/N=C/c3ccc(-c4cn5cc(C)ccc5[n+]4C)cc3)cc1)[n+]2C	> 100 µM
CC1(C)OC2CC3COC(=O)C3CC2O1 (stereo not drawn)	> 100 µM
CCO/C(CCn1[nH]c(=O)c(Cl)c(Cl)c1=O)=N\NC(=O)C(=O)NN	> 100 µM
O=P(O)(O)OCC1OC(n2cnc3c(NCc4ccco4)ncnc32)C(O)C1O (stereo not drawn)	> 37.4 µM
COC1=CC(=O)N(C(=O)[C@@H](OC(=O)[C@@H](C)N(C)C(=O)[C@@H]2CCCN2C(=O)[C@H](C(C)C)N(C)C(=O)[C@@H](NC(=O)[C@H](C(C)C)N(Cc2ccccc2)Cc2ccccc2)C(C)C)C(C)C)[C@H]1Cc1ccccc1 (Bn2Val-V[NMeV]P[dNMeA]-X28)	> 100 µM
N#CCCN(CCC#N)c1ccc(/C=C2\SC(=S)NC2=O)cc1	> 100 µM
CSc1c2c(C)n[nH]c2nn1-c1ccccc1	> 100 µM
COc1cccc(Sc2ccc([N+](=O)[O-])c3no[n+]([O-])c23)c1	29.5 µM
Cc1cc(C(=O)Nc2cc(Oc3ccc4nc(NC(=O)C5CC5)cn4n3)ccc2C)n(C)n1	> 10 µM
Cc1c(-c2coc(-c3ccccc3)n2)c(=O)n(-c2ccccc2)n1C	61 µM
